System: PC-14
test-name: relative viability (nuclei count vs DMSO), 5 days (fraction); higher = more cells survive
experimental-context: first compound 0.253 µM
recorded-metric: relative viability

{"compound": "Nc1cccc2c1CN(C1CCC(=O)NC1=O)C2=O (centres undefined) [Lenalidomide] + CCNC(=O)c1noc(-c2cc(C(C)C)c(O)cc2O)c1-c1ccc(CN2CCOCC2)cc1 [Luminespib] (partner 0.01 µM)", "experimental-result": 0.152}
{"compound": "Nc1cccc2c1CN(C1CCC(=O)NC1=O)C2=O (centres undefined) [Lenalidomide] + Cc1nc(Nc2ncc(C(=O)Nc3c(C)cccc3Cl)s2)cc(N2CCN(CCO)CC2)n1 [Dasatinib] (partner 0.075 µM)", "experimental-result": 0.236}
{"compound": "Nc1cccc2c1CN(C1CCC(=O)NC1=O)C2=O (centres undefined) [Lenalidomide] + Cc1nc(NC(=O)N2CCC[C@H]2C(N)=O)sc1-c1ccnc(C(C)(C)C(F)(F)F)c1 [Alpelisib] (partner 2 µM)", "experimental-result": 0.899}

Task item: Quick one: give measured relative viability for Nc1cccc2c1CN(C1CCC(=O)NC1=O)C2=O (centres undefined) [Lenalidomide] + Cc1cc(Nc2cc(N3CCN(C)CC3)nc(Sc3ccc(NC(=O)C4CC4)cc3)n2)n[nH]1 [Tozasertib] (partner 0.1 µM)
Reply: 0.629

###

Provide the recorded relative viability for the entries that follow.
System: LXF-289
test-name: relative viability (nuclei count vs DMSO), 5 days (fraction); higher = more cells survive
experimental-context: first compound 0.02 µM
One number for each entry.

For orientation, consider the following solved cases.
{"molecule": "CN1CCN(CCOc2cc(OC3CCOCC3)c3c(Nc4c(Cl)ccc5c4OCO5)ncnc3c2)CC1 [Saracatinib] + Cc1nc(Nc2ncc(C(=O)Nc3c(C)cccc3Cl)s2)cc(N2CCN(CCO)CC2)n1 [Dasatinib] (partner 0.075 µM)", "target-under-test": "LXF-289", "relative viability": 0.224}
{"molecule": "CN1CCN(CCOc2cc(OC3CCOCC3)c3c(Nc4c(Cl)ccc5c4OCO5)ncnc3c2)CC1 [Saracatinib] + CC(=O)Nc1cccc(-n2c(=O)n(C3CC3)c(=O)c3c(Nc4ccc(I)cc4F)n(C)c(=O)c(C)c32)c1 [Trametinib] (partner 0.02 µM)", "target-under-test": "LXF-289", "relative viability": 0.677}
{"molecule": "CCNC(=O)c1noc(-c2cc(C(C)C)c(O)cc2O)c1-c1ccc(CN2CCOCC2)cc1 [Luminespib] + COc1cccc2cc(-c3nc([C@H]4CC[C@H](C(=O)O)CC4)n4ncnc(N)c34)[nH]c12 [OSI-027] (partner 0.5 µM)", "target-under-test": "LXF-289", "relative viability": 0.759}
{"molecule": "CCNC(=O)c1noc(-c2cc(C(C)C)c(O)cc2O)c1-c1ccc(CN2CCOCC2)cc1 [Luminespib] + Nc1ncn([C@H]2C[C@H](O)[C@@H](CO)O2)c(=O)n1 [Decitabine] (partner 2 µM)", "target-under-test": "LXF-289", "relative viability": 0.424}
{"molecule": "CCNC(=O)c1noc(-c2cc(C(C)C)c(O)cc2O)c1-c1ccc(CN2CCOCC2)cc1 [Luminespib] + CC(=O)c1c(C)c2cnc(Nc3ccc(N4CCNCC4)cn3)nc2n(C2CCCC2)c1=O [Palbociclib] (partner 0.5 µM)", "target-under-test": "LXF-289", "relative viability": 0.601}
{"molecule": "CN1CCN(CCOc2cc(OC3CCOCC3)c3c(Nc4c(Cl)ccc5c4OCO5)ncnc3c2)CC1 [Saracatinib] + O=C(CCCCCCC(=O)Nc1ccccc1)NO [Vorinostat] (partner 1 µM)", "target-under-test": "LXF-289", "relative viability": 0.78}
{"molecule": "CCNC(=O)c1noc(-c2cc(C(C)C)c(O)cc2O)c1-c1ccc(CN2CCOCC2)cc1 [Luminespib] + O=C(CCCCCCC(=O)Nc1ccccc1)NO [Vorinostat] (partner 1 µM)", "target-under-test": "LXF-289", "relative viability": 1}
{"molecule": "CN1CCN(CCOc2cc(OC3CCOCC3)c3c(Nc4c(Cl)ccc5c4OCO5)ncnc3c2)CC1 [Saracatinib] + NC(=O)Nc1cc(-c2cccc(F)c2)sc1C(=O)N[C@H]1CCCNC1 [AZD7762] (partner 0.2 µM)", "target-under-test": "LXF-289", "relative viability": 1.12}

Continue with the molecule presented below.
Task item: Quick one: give measured relative viability for CCNC(=O)c1noc(-c2cc(C(C)C)c(O)cc2O)c1-c1ccc(CN2CCOCC2)cc1 [Luminespib] + C[C@]1(O)C[C@@H](c2nc(-c3ccc4ccc(-c5ccccc5)nc4c3)c3c(N)nccn32)C1 [Linsitinib] (partner 1 µM)
Reply: 1.12

###

Tested on: NCI-H3122
test-name: relative viability (nuclei count vs DMSO), 5 days (fraction); higher = more cells survive
experimental-context: first compound 2.53 µM
Provide the recorded relative viability for the entries that follow.
Answers are plain numbers.

For orientation, consider the following solved cases.
{"molecule": "Nc1cccc2c1CN(C1CCC(=O)NC1=O)C2=O (stereo unspecified) [Lenalidomide] + O=C(c1cc(Cc2n[nH]c(=O)c3ccccc23)ccc1F)N1CCN(C(=O)C2CC2)CC1 [Olaparib] (partner 8 µM)", "target-under-test": "NCI-H3122", "relative viability": 0.623}
{"molecule": "Nc1cccc2c1CN(C1CCC(=O)NC1=O)C2=O (stereo unspecified) [Lenalidomide] + C[C@@H](Oc1cc(-c2cnn(C3CCNCC3)c2)cnc1N)c1c(Cl)ccc(F)c1Cl [Crizotinib] (partner 1 µM)", "target-under-test": "NCI-H3122", "relative viability": 0.261}
{"molecule": "Nc1cccc2c1CN(C1CCC(=O)NC1=O)C2=O (stereo unspecified) [Lenalidomide] + CCNC(=O)c1noc(-c2cc(C(C)C)c(O)cc2O)c1-c1ccc(CN2CCOCC2)cc1 [Luminespib] (partner 0.01 µM)", "target-under-test": "NCI-H3122", "relative viability": 0.0693}
{"molecule": "Nc1cccc2c1CN(C1CCC(=O)NC1=O)C2=O (stereo unspecified) [Lenalidomide] + CS(=O)(=O)N1CCN(Cc2cc3nc(-c4cccc5[nH]ncc45)nc(N4CCOCC4)c3s2)CC1 [Pictilisib] (partner 1 µM)", "target-under-test": "NCI-H3122", "relative viability": 0.589}
{"molecule": "Nc1cccc2c1CN(C1CCC(=O)NC1=O)C2=O (stereo unspecified) [Lenalidomide] + COc1cc2c(Oc3ccc(NC(=O)C4(C(=O)Nc5ccc(F)cc5)CC4)cc3F)ccnc2cc1OCCCN1CCOCC1 [Foretinib] (partner 0.25 µM)", "target-under-test": "NCI-H3122", "relative viability": 0.915}

Continue with the molecule presented below.
Task item: Name the recorded relative viability of Nc1cccc2c1CN(C1CCC(=O)NC1=O)C2=O (stereo unspecified) [Lenalidomide] + Cc1nc(Nc2ncc(C(=O)Nc3c(C)cccc3Cl)s2)cc(N2CCN(CCO)CC2)n1 [Dasatinib] (partner 0.075 µM) , assay system NCI-H3122.
Reply: 0.746

###

Provide the recorded relative viability for the entries that follow.
Test system: LOU-NH91
test-name: relative viability (nuclei count vs DMSO), 5 days (fraction); higher = more cells survive
experimental-context: first compound 0.03162 µM
Give bare numbers.

{"compound": "Cc1cn(-c2cc(NC(=O)c3ccc(C)c(Nc4nccc(-c5cccnc5)n4)c3)cc(C(F)(F)F)c2)cn1 [Nilotinib] + Nc1nc2[nH]cc(CCc3ccc(C(=O)N[C@@H](CCC(=O)O)C(=O)O)cc3)c2c(=O)[nH]1 [Pemetrexed] (partner 0.2 µM)", "relative viability": 0.384}

Continue with the compound presented below.
Task item: Quick one: give measured relative viability for Cc1cn(-c2cc(NC(=O)c3ccc(C)c(Nc4nccc(-c5cccnc5)n4)c3)cc(C(F)(F)F)c2)cn1 [Nilotinib] + NC(=O)Nc1cc(-c2cccc(F)c2)sc1C(=O)N[C@H]1CCCNC1 [AZD7762] (partner 0.2 µM)
Reply: 0.65

###

System: NCI-H1792
test-name: relative viability (nuclei count vs DMSO), 5 days (fraction); higher = more cells survive
experimental-context: first compound 0.2 µM
// classify: if (relative viability < 0.6) MET else NOT MET

Answered examples (8):
{"compound": "CN1CCN(CCOc2cc(OC3CCOCC3)c3c(Nc4c(Cl)ccc5c4OCO5)ncnc3c2)CC1 [Saracatinib] + O=C(c1cc(Cc2n[nH]c(=O)c3ccccc23)ccc1F)N1CCN(C(=O)C2CC2)CC1 [Olaparib] (partner 8 µM)", "assigned-category": "MET"}
{"compound": "CN1CCN(CCOc2cc(OC3CCOCC3)c3c(Nc4c(Cl)ccc5c4OCO5)ncnc3c2)CC1 [Saracatinib] + Nc1ncn([C@H]2C[C@H](O)[C@@H](CO)O2)c(=O)n1 [Decitabine] (partner 2 µM)", "assigned-category": "MET"}
{"compound": "CCNC(=O)c1noc(-c2cc(C(C)C)c(O)cc2O)c1-c1ccc(CN2CCOCC2)cc1 [Luminespib] + CC(=O)c1c(C)c2cnc(Nc3ccc(N4CCNCC4)cn3)nc2n(C2CCCC2)c1=O [Palbociclib] (partner 0.5 µM)", "assigned-category": "MET"}
{"compound": "Cc1csc(=NC2CCCCC2)n1/N=C/c1ccc(O)c(O)c1O [MIM1] + CS(=O)(=O)CCNCc1ccc(-c2ccc3ncnc(Nc4ccc(OCc5cccc(F)c5)c(Cl)c4)c3c2)o1 [Lapatinib] (partner 2 µM)", "assigned-category": "NOT MET"}
{"compound": "CN1CCN(CCOc2cc(OC3CCOCC3)c3c(Nc4c(Cl)ccc5c4OCO5)ncnc3c2)CC1 [Saracatinib] + NC(=O)Nc1cc(-c2cccc(F)c2)sc1C(=O)N[C@H]1CCCNC1 [AZD7762] (partner 0.2 µM)", "assigned-category": "MET"}
{"compound": "Cc1csc(=NC2CCCCC2)n1/N=C/c1ccc(O)c(O)c1O [MIM1] + Nc1nc2[nH]cc(CCc3ccc(C(=O)N[C@@H](CCC(=O)O)C(=O)O)cc3)c2c(=O)[nH]1 [Pemetrexed] (partner 0.2 µM)", "assigned-category": "NOT MET"}
{"compound": "CN1CCN(CCOc2cc(OC3CCOCC3)c3c(Nc4c(Cl)ccc5c4OCO5)ncnc3c2)CC1 [Saracatinib] + CS(=O)(=O)CCNCc1ccc(-c2ccc3ncnc(Nc4ccc(OCc5cccc(F)c5)c(Cl)c4)c3c2)o1 [Lapatinib] (partner 2 µM)", "assigned-category": "NOT MET"}
{"compound": "CCNC(=O)c1noc(-c2cc(C(C)C)c(O)cc2O)c1-c1ccc(CN2CCOCC2)cc1 [Luminespib] + C[C@]1(O)C[C@@H](c2nc(-c3ccc4ccc(-c5ccccc5)nc4c3)c3c(N)nccn32)C1 [Linsitinib] (partner 1 µM)", "assigned-category": "MET"}

Now for another entry.
Task item: # strict comparison: is reported relative viability < 0.6? input = Cc1csc(=NC2CCCCC2)n1/N=C/c1ccc(O)c(O)c1O [MIM1] + Nc1ncn([C@H]2C[C@H](O)[C@@H](CO)O2)c(=O)n1 [Decitabine] (partner 2 µM)
Reply: MET
